- study.system: CDK16/Cyclin Y (Homo sapiens, UniProt Q00536)
- Sequence (Q00536 whole entry): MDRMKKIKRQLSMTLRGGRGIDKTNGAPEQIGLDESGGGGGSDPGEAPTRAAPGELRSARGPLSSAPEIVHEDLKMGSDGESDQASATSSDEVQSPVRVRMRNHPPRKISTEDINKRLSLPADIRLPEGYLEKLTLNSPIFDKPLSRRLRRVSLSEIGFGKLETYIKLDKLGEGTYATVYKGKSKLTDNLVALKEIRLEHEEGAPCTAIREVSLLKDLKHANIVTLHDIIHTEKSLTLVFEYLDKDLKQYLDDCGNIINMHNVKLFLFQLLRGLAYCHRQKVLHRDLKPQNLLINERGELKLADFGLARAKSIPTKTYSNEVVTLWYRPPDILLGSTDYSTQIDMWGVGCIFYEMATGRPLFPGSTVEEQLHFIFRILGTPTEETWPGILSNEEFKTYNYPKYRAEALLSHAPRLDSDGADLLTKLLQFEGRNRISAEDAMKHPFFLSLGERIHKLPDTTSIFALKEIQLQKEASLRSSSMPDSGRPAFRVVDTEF
- Sequence (Q8ND76 whole entry partner): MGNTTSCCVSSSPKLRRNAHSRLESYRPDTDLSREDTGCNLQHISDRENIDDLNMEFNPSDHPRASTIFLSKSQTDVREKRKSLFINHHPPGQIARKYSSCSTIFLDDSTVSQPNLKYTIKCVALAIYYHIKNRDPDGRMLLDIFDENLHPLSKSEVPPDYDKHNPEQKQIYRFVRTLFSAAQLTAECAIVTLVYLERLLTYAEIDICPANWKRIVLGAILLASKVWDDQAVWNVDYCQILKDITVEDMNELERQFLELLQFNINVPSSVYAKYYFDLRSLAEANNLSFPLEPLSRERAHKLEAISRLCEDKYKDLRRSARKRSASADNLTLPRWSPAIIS
- experiment.notes: NanoBRET live-cell target engagement, CDK16-NanoLuc/Cyclin Y in HEK-293
- Assay type: binding
- test.context: CDK16/Y; 10µM; read-out: Inhibition at 10µM (%) Replicate 1
Class t: inhibition at 10 µM at least 70%. Class f: inhibition at 10 µM below 70%.

[
  {
    "compound": "COc1cc(F)ccc1-c1ncnc(Nc2cccc(C[S@](C)(=N)=O)c2)n1 [Atuveciclib]",
    "answer.label": "f"
  },
  {
    "compound": "CCN1CCN(Cc2ccc(Nc3ncc(F)c(-c4cc(F)c5nc(C)n(C(C)C)c5c4)n3)nc2)CC1 [Abemaciclib]",
    "answer.label": "t"
  },
  {
    "compound": "COc1cc(F)ccc1-c1cc(Nc2cc(CS(C)(=N)=O)ccn2)ncc1F (centres unmarked) [BAY-1251152]",
    "answer.label": "f"
  }
]

Here is the next item to consider.
Task: Hi team, for Cc1ncc(-c2ccnc(Nc3ccc(S(C)(=O)=O)cc3)n2)n1C(C)C [AZD5438] , is the recorded inhibition at 10 µM at or above 70%?
Result: t

---

Documented Inhibition at 10µM (%) across a set of compounds
- study.system: CDK12/Cyclin K (Homo sapiens, UniProt Q9NYV4)
- Sequence (Q9NYV4 1-1481 isoform Q9NYV4-2): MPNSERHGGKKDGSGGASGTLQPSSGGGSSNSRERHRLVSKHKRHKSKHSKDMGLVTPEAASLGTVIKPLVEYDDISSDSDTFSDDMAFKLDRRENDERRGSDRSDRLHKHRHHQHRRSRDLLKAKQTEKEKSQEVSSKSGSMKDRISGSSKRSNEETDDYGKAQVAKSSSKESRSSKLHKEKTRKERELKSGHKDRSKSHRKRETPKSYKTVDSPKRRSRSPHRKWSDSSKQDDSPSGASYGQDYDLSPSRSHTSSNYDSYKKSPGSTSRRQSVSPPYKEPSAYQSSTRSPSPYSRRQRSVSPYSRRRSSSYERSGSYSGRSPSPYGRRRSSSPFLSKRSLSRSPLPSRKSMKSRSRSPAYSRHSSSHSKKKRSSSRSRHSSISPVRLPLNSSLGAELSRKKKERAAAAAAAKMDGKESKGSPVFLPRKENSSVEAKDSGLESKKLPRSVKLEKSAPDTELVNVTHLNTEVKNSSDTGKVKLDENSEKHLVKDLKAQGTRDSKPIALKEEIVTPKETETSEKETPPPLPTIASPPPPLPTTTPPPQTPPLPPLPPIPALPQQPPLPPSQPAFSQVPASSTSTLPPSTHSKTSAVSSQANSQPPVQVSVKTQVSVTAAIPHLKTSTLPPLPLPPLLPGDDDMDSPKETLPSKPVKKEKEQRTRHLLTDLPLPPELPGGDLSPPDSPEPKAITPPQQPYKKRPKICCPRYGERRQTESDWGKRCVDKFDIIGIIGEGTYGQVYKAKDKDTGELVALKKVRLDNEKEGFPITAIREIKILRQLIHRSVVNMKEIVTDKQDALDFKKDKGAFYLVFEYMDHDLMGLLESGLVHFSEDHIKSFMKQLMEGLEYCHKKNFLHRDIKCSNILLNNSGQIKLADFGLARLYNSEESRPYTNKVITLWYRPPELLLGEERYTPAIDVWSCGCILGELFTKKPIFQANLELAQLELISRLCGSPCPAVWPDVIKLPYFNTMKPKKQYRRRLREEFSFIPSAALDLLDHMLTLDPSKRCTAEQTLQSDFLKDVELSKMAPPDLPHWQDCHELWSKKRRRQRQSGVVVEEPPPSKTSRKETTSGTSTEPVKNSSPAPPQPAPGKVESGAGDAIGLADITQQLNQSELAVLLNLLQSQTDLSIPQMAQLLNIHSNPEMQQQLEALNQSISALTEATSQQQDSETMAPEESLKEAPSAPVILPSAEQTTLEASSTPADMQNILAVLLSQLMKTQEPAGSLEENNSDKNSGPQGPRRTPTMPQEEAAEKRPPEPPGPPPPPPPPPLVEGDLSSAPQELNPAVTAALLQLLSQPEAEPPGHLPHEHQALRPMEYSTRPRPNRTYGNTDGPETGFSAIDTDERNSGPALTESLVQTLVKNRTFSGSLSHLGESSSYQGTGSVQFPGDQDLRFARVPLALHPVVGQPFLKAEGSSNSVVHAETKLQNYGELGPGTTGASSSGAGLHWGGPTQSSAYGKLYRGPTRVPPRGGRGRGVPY
- Sequence (O75909 whole entry partner): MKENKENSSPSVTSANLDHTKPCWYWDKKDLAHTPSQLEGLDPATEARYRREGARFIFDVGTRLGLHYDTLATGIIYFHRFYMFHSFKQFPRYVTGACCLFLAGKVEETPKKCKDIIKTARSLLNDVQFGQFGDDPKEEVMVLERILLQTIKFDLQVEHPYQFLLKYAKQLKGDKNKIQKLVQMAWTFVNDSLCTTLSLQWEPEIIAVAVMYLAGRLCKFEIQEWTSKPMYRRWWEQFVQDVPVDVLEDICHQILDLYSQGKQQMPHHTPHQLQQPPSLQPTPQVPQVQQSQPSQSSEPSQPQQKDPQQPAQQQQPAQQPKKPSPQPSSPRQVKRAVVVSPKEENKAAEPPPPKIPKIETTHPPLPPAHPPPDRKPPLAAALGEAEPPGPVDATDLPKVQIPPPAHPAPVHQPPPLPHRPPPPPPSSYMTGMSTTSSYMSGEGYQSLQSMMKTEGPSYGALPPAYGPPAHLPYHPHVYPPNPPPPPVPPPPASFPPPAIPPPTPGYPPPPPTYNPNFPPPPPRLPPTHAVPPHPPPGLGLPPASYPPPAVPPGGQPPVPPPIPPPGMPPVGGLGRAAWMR
- experiment.notes: NanoBRET live-cell target engagement, CDK12-NanoLuc/Cyclin K in HEK-293
- Type: binding
- test.context: CDK12/K; experiment 2
API: value field is a number in %; no unit string.

Would you please look over these solved cases?
[
  {
    "compound": "CS(=O)(=O)N1CCC(NC(=O)c2[nH]ncc2NC(=O)c2c(Cl)cccc2Cl)CC1 [NVP-LCQ195]",
    "numeric.result": 22.1
  },
  {
    "compound": "CC(C)c1cnn2c(NCc3ccccc3-n3cccn3)nc(OC3CCCNC3)nc12 (stereo not drawn) [LDC4297]",
    "numeric.result": 10.4
  },
  {
    "compound": "CN1CCC(c2c(O)cc(O)c3c(=O)cc(-c4ccccc4Cl)oc23)C1CO (stereo not drawn) [P276-00]",
    "numeric.result": 4.1
  },
  {
    "compound": "CC(C)c1c2cc(-c3ccnc(N[C@H]4CC[C@H](NC5CCOCC5)CC4)n3)ccc2nn1C [LY2857785]",
    "numeric.result": 39.1
  },
  {
    "compound": "CNc1nc(C)c(-c2nc(Nc3cccc(S(N)(=O)=O)c3)ncc2F)s1 [CDKI-73]",
    "numeric.result": 53.2
  }
]

Now take the following compound into account.
Task: Form entry - test system: CDK12/Cyclin K (Homo sapiens, UniProt Q9NYV4); read-out: Inhibition at 10µM (%); compound: CCn1cnc2c(Nc3cccc(Cl)c3)nc(N[C@@H]3CCCC[C@@H]3N)nc21 [CGP74514A]
Result: 31.4

---

- study.system: CDK5/CDK5R1 (Homo sapiens)
- Sequence (Q00535 whole entry): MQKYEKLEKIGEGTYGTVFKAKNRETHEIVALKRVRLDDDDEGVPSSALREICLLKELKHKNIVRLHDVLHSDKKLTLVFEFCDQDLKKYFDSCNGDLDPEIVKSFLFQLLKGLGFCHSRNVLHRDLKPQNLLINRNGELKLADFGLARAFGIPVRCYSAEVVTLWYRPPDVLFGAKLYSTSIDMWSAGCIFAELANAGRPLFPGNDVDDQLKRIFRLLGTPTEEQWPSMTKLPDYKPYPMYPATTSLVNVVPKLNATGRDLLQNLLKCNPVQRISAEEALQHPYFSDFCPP
- Sequence (Q15078 whole entry partner): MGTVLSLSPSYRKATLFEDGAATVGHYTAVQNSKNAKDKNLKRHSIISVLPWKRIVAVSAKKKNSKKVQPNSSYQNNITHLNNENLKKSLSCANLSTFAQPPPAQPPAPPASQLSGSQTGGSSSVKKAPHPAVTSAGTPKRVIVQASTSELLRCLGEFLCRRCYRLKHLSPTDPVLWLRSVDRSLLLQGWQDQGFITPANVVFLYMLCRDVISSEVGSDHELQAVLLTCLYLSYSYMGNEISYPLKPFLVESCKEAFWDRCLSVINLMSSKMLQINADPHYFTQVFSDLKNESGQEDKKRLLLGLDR
- experiment.notes: NanoBRET live-cell target engagement, CDK5-NanoLuc/CDK5R1 in HEK-293
- Format: binding
- test.context: CDK5/CDK5R1; experiment 1; read-out: IC50
A collection of molecules and their measured IC50
Express your answer in nM, writing the number without its unit.

Consider the following illustrative entries.
[
  {
    "molecule": "CCn1cnc2c(Nc3cccc(Cl)c3)nc(N[C@@H]3CCCC[C@@H]3N)nc21 [CGP74514A]",
    "study.system": "CDK5/CDK5R1 (Homo sapiens)",
    "numeric.result": 74
  },
  {
    "molecule": "CS(=O)(=O)N1CCC(NC(=O)c2[nH]ncc2NC(=O)c2c(Cl)cccc2Cl)CC1",
    "study.system": "CDK5/CDK5R1 (Homo sapiens)",
    "numeric.result": 37
  }
]

Read the next record carefully.
Task: GET /values?readout=IC50&system=CDK5/CDK5R1 (Homo sapiens)&item= CC(C)c1cnn2c(NCc3ccccc3-n3cccn3)nc(OC3CCCNC3)nc12 (stereo not drawn)
Result: 204

---

- study.system: CDK20/Cyclin H (Homo sapiens, UniProt Q8IZL9)
- Sequence (Q8IZL9 whole entry): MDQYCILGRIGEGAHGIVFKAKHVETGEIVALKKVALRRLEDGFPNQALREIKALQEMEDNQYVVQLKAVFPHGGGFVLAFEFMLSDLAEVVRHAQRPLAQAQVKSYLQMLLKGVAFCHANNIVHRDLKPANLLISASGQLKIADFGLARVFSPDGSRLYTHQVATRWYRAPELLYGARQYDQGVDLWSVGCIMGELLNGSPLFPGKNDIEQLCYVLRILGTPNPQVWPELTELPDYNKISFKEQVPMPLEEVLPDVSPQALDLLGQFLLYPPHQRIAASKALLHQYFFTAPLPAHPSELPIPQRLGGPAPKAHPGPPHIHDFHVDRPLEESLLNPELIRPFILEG
- Sequence (P51946 whole entry partner): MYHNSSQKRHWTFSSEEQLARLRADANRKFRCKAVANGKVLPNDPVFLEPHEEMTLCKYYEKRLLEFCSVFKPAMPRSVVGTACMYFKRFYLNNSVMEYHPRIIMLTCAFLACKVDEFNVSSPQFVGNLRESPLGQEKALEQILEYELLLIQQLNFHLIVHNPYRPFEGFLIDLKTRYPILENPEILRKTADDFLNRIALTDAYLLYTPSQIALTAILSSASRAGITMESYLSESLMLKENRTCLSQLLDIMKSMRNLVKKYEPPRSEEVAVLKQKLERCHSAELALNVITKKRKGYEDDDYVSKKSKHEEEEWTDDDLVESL
- experiment.notes: NanoBRET live-cell target engagement, NanoLuc-CDK20/Cyclin H in HEK-293
- Assay type: binding
- test.context: CDK20/H; experiment 1; read-out: Inhibition at 10µM (%)
assay.endpoint: inhibition at 10 µM (%)
Expressed in %, but write only the number.

Solved entries:
[
  {
    "molecule": "Cn1cc(-c2ccc(-c3cncc(Cl)c3N3CCC4(CCNC4=O)CC3)cc2)cn1",
    "assay.endpoint": "inhibition at 10 µM",
    "unit.abbrev": "%",
    "numeric.result": 3.3
  },
  {
    "molecule": "CN1CCN(c2ccc(Nc3ncc4cc(C#N)c(=O)n(C5CCCC5)c4n3)cc2)CC1",
    "assay.endpoint": "inhibition at 10 µM",
    "unit.abbrev": "%",
    "numeric.result": 23.1
  },
  {
    "molecule": "COc1ccc(F)cc1-c1cc(NC(=O)C2CCCNC2)ncc1Cl (stereo not shown)",
    "assay.endpoint": "inhibition at 10 µM",
    "unit.abbrev": "%",
    "numeric.result": 18.7
  },
  {
    "molecule": "N#CCNC(=O)c1ccc(-c2ccnc(Nc3ccc(N4CCOCC4)cc3)n2)cc1",
    "assay.endpoint": "inhibition at 10 µM",
    "unit.abbrev": "%",
    "numeric.result": 10.6
  },
  {
    "molecule": "CN1CC[C@H](c2c(O)cc(O)c3c(=O)cc(-c4ccccc4Cl)oc23)[C@H](O)C1",
    "assay.endpoint": "inhibition at 10 µM",
    "unit.abbrev": "%",
    "numeric.result": 6.3
  },
  {
    "molecule": "CN1CCN(Cc2ccc(NC(=O)Nc3ccc(Oc4ccnc(N)n4)cc3)cc2C(F)(F)F)CC1",
    "assay.endpoint": "inhibition at 10 µM",
    "unit.abbrev": "%",
    "numeric.result": 40
  },
  {
    "molecule": "CC(C)N1CCN(c2ccc(Nc3ncc4cc5n(c4n3)C3(CCCCC3)CNC5=O)nc2)CC1",
    "assay.endpoint": "inhibition at 10 µM",
    "unit.abbrev": "%",
    "numeric.result": 10.2
  },
  {
    "molecule": "CC(C)c1cnn2c(NCc3ccccc3)cc(NC[C@H]3CCNC[C@@H]3O)nc12",
    "assay.endpoint": "inhibition at 10 µM",
    "unit.abbrev": "%",
    "numeric.result": 27.8
  },
  {
    "molecule": "CC(C)(C)c1nc(-c2cccc(NS(=O)(=O)c3c(F)cccc3F)c2F)c(-c2ccnc(N)n2)s1",
    "assay.endpoint": "inhibition at 10 µM",
    "unit.abbrev": "%",
    "numeric.result": 13.5
  }
]

Alright, here's another molecule for you.
Task: Data request, read-out inhibition at 10 µM, for `CNC(=O)c1nn(C)c2c1C(C)(C)Cc1cnc(Nc3ccc(N4CCN(C)CC4)cc3)nc1-2`
Result: 50.1

---

- study.system: CDK9/Cyclin K (Homo sapiens)
- experiment.notes: NanoBRET live-cell target engagement, NanoLuc-CDK9/Cyclin K in HEK-293
- Type: binding
- test.context: CDK9/K; experiment 2; read-out: Inhibition at 10µM (%)
Readings of inhibition at 10 µM for the listed molecules
Give the value in % but do not write % after it.

[
  {
    "molecule": "CC(C)N1CCN(c2ccc(Nc3ncc4cc5n(c4n3)C3(CCCCC3)CNC5=O)nc2)CC1 [Lerociclib]",
    "study.system": "CDK9/Cyclin K (Homo sapiens)",
    "assay.endpoint": "inhibition at 10 µM",
    "numeric.result": 27.6
  }
]

Task: Entry CC(C)c1cnn2c(NCc3ccccc3)cc(NC[C@H]3CCNC[C@@H]3O)nc12 [CT7001] has what inhibition at 10 µM?
Result: 86.4

Task: Can you handle CNC(=O)c1nn(C)c2c1C(C)(C)Cc1cnc(Nc3ccc(N4CCN(C)CC4)cc3)nc1-2 [Milciclib] next?
Result: 60.5

---

Some compounds, each annotated with its measured inhibition at 10 µM.
- study.system: CDK11B/Cyclin L2 (Homo sapiens)
- Sequence (P21127 1-782 isoform P21127-2): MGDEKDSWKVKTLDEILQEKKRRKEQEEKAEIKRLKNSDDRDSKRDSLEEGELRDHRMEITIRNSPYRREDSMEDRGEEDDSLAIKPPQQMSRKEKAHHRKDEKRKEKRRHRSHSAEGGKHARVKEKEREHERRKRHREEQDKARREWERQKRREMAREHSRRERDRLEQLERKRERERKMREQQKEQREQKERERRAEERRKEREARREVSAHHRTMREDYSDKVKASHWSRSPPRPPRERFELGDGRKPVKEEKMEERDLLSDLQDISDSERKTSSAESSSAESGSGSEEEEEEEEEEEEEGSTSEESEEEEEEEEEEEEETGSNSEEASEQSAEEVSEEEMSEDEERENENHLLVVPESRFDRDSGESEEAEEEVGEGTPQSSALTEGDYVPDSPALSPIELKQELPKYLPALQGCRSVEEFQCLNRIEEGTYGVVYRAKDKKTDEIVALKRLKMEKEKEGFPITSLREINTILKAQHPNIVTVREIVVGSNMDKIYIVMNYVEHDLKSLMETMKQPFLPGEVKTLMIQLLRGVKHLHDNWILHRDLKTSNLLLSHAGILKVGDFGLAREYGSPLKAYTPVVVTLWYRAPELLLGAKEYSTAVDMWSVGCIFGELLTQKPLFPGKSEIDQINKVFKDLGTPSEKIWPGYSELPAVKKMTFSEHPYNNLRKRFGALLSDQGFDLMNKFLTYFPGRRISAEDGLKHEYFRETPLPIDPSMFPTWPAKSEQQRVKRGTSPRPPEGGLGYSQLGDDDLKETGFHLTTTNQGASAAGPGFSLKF
- experiment.notes: NanoBRET live-cell target engagement, CDK11B-NanoLuc/Cyclin L2 in HEK-293
- Assay type: binding
- test.context: 10µM; independent experiment 2; read-out: CDK11b/L2 Inhibition at 10µM (%)

Task: So what's the measured inhibition at 10 µM for this one? CN1CCN(c2ccc(Nc3ncc4cc5n(c4n3)C3(CCCCC3)CNC5=O)nc2)CC1 [Trilaciclib]
Result: 40.7%

Task: Entry to check: CN(C)C(=O)c1cc2cnc(Nc3ccc(N4CCNCC4)cn3)nc2n1C1CCCC1 [Ribociclib]
Result: -0.5%

Task: Moving on to the next compound: CC(=O)c1c(C)c2cnc(Nc3ccc(N4CCNCC4)cn3)nc2n(C2CCCC2)c1=O [Palbociclib]
Result: 23.1%
